FYI, the data here is from PubChem BioAssay AID1996.

testParameters: buffer; pH 7.4; 200.0 µM
Provide the reported log10 of solubility kinetic of each item.
Recorded solubility kinetic (log10, µg/mL)

According to the records, this molecule Cc1cc(=O)oc2cc(NC(=O)Cc3ccccc3[N+](=O)[O-])ccc12 displays log10 of solubility kinetic of -0.05

According to the records, this molecule CCCCOC(=O)C1=C(C)NC(=O)NC1c1ccc(N(C)C)cc1 (stereo not drawn) displays log10 of solubility kinetic of 0.23

According to the records, this molecule O=C(Nc1ncc2c(n1)-c1ccccc1OC2)c1ccc(F)cc1 displays log10 of solubility kinetic of 0.79

According to the records, this molecule Cc1ccc2c(c1)N(Cc1ccc([N+](=O)[O-])cc1)C=NS2(=O)=O displays log10 of solubility kinetic of 1.54

According to the records, this molecule CCOC(=O)c1sc(NC(=O)c2ccoc2C)c(C(N)=O)c1C displays log10 of solubility kinetic of 0.86

According to the records, this molecule COc1ccc(NC(=O)c2cc(-c3ccncc3)nc3ccccc23)c(OC)c1 displays log10 of solubility kinetic of 0.62

----------
testParameters: buffer; pH 7.4; 200.0 µM
propertyLabel: solubility kinetic (µg/mL)
Output spec: scalar in µg/mL, unitless text.

According to the records, this compound O=C(NCCSCc1ccco1)c1ccc(=O)[nH]c1 displays solubility kinetic of 38.2

According to the records, this compound Cc1ccnc(NC(=O)c2cccc(S(=O)(=O)N3CCCC3)c2)c1 displays solubility kinetic of 43.1

According to the records, this compound CCOc1ccc2nc(N(CCN(C)C)C(=O)c3cc4ccccc4cc3OC)sc2c1.Cl displays solubility kinetic of 4.2

According to the records, this compound O=C(OCC(=O)c1ccc[nH]1)c1ccc2ccccc2n1 displays solubility kinetic of 30

According to the records, this compound CCC(CC)C(=O)OCC(=O)Nc1cccc([N+](=O)[O-])c1 displays solubility kinetic of 43

According to the records, this compound CC(=O)N1c2ccc(Cl)cc2C2OCCC2C1c1ccco1 (configuration not stated) displays solubility kinetic of 42.2

According to the records, this compound CCOc1ccc(-c2noc(-c3cccnc3)n2)cc1OCC displays solubility kinetic of 2.2

According to the records, this compound COc1cccc(OCCn2cc(C=O)c3ccccc32)c1 displays solubility kinetic of 12.2

----------
testParameters: buffer; pH 7.4; 200.0 µM
Provide the reported solubility kinetic of each item.
Output spec: scalar in µg/mL, unitless text.

According to the records, this molecule Cc1ccc(CNC(=O)CCCc2ccccc2)cc1 displays solubility kinetic of 9.2

According to the records, this molecule COc1ccc(S(=O)(=O)N2CCc3ccccc32)cc1C(=O)NCC(c1ccco1)N1CCCC1 (stereo not given) displays solubility kinetic of 20.1

----------
testParameters: buffer; pH 7.4; 200.0 µM
propertyLabel: solubility kinetic

According to the records, this compound O=C(Nc1ccncc1)c1ccc(Cl)cc1 displays solubility kinetic of > 0.0349 mg/mL

According to the records, this compound Nc1nc(SCC(=O)O)[nH]c(=O)c1NC(=O)c1ccco1 displays solubility kinetic of > 0.0465 mg/mL

According to the records, this compound CC1Cc2ccccc2N1C(=O)CN1CCC(C(N)=O)CC1 (stereo not drawn) displays solubility kinetic of > 0.0452 mg/mL

----------
testParameters: buffer; pH 7.4; 200.0 µM
Provide the reported solubility kinetic of each item.

According to the records, this compound O=c1[nH]c(/C=C\c2cccc(F)c2)nc(O)c1[N+](=O)[O-] displays solubility kinetic of > 0.0416 mg/mL

According to the records, this compound O=C(O)c1cccc(N(CCO)CCO)c1 displays solubility kinetic of > 0.0338 mg/mL

According to the records, this compound CCOc1ncccc1C(=O)Nc1ccc2c(c1)OCCO2 displays solubility kinetic of > 0.045 mg/mL

According to the records, this compound COc1ccc(NC(=O)CN(C)CC(=O)N(CC(C)C)c2c(N)n(CC(C)C)c(=O)[nH]c2=O)cc1 displays solubility kinetic of > 0.0733 mg/mL

According to the records, this compound COc1ccc([N+](=O)[O-])cc1NC(=O)CCSCCc1ccccn1 displays solubility kinetic of > 0.0542 mg/mL

According to the records, this compound Cc1ccc2[nH]c(C(=O)N3CCOCC3)cc2c1 displays solubility kinetic of > 0.0366 mg/mL

According to the records, this compound COc1ccc(NC(=S)NCCN2CCC(C)CC2)cc1 displays solubility kinetic of > 0.0461 mg/mL

According to the records, this compound O=C1CSC(=Nc2cccc(C(=O)O)c2)N1 displays solubility kinetic of > 0.0354 mg/mL

According to the records, this compound Cc1[nH]c(=O)c(Cc2ccccc2)c(O)c1C#N displays solubility kinetic of > 0.036 mg/mL

According to the records, this compound NC(=O)c1ccccc1OCC(=O)N1CCCc2ccccc21 displays solubility kinetic of > 0.0466 mg/mL

According to the records, this compound O=C(NC1CC1)c1ccc(NS(=O)(=O)c2ccccc2)cc1 displays solubility kinetic of > 0.0475 mg/mL

According to the records, this compound Cc1noc(C)c1COc1ccccc1C(=O)NC1CCC(C)CC1 (configuration not stated) displays solubility kinetic of > 0.0514 mg/mL

According to the records, this compound CCN1CCN(Cc2nnc(-c3ccc(C)cc3)o2)CC1 displays solubility kinetic of > 0.043 mg/mL

According to the records, this compound CCOc1ncccc1C(=O)OCC(=O)NCc1ccc(C(=O)OC)cc1 displays solubility kinetic of > 0.0559 mg/mL

According to the records, this compound CC(=O)O/C(=C\c1cn(C(C)=O)c2ccccc12)C(=O)O displays solubility kinetic of > 0.0431 mg/mL

According to the records, this compound CC(=O)N/C(=C\c1ccc(C)o1)C(=O)NCc1ccccc1 displays solubility kinetic of > 0.0448 mg/mL

According to the records, this compound O=S(=O)(Nc1nccs1)c1ccc(F)cc1 displays solubility kinetic of > 0.0387 mg/mL

----------
Provide the reported solubility kinetic of each item.
testParameters: buffer; pH 7.4; 200.0 µM

According to the records, this compound COc1c(C(=O)Nc2ccc(Br)cn2)ccc2ccccc12 displays solubility kinetic of < 0.4 µg/mL

According to the records, this compound COC(=O)c1cc(C)sc1NC(=O)c1ccco1 displays solubility kinetic of < 0.6 µg/mL

According to the records, this compound Cc1c(Cl)cccc1NC(=O)CC(Cc1ccccc1)C(=O)O (stereo unspecified) displays solubility kinetic of > 49.8 µg/mL

According to the records, this compound O=C1Nc2cccnc2N(C(=O)CCl)c2ccccc21 displays solubility kinetic of > 43.2 µg/mL

According to the records, this compound COc1cc(NC(=O)CSc2nncn2C)cc(OC)c1OC displays solubility kinetic of > 50.8 µg/mL

According to the records, this compound CCCC1(c2ccccc2)NC(=O)N(C/C=C/Cl)C1=O (stereo unspecified) displays solubility kinetic of > 43.9 µg/mL

According to the records, this compound CC(=O)OCC(=O)Nc1ccccc1C displays solubility kinetic of > 31.1 µg/mL

According to the records, this compound O=C(COC(=O)C1COc2ccccc2O1)Nc1ccccc1OC(F)F (stereo unspecified) displays solubility kinetic of > 56.9 µg/mL

According to the records, this compound COCC(C)NC(=O)c1ccc2c(c1)S(=O)(=O)c1ccccc1C2=O (stereo unspecified) displays solubility kinetic of > 53.9 µg/mL

According to the records, this compound CC(C)N1C(=O)CCC1C(=O)N1CCN(c2ccc(F)cc2)CC1 (stereo unspecified) displays solubility kinetic of > 50 µg/mL

According to the records, this compound CCCNC(=O)Cn1sc2nc(C)cc(C)c2c1=O displays solubility kinetic of > 41.9 µg/mL

----------
Provide the reported log10(solubility kinetic) of each item.
testParameters: buffer; pH 7.4; 200.0 µM
Recorded solubility kinetic (log10, µg/mL)

According to the records, this compound Cc1cccc(OCC(=O)NCCCNC(=O)c2ccco2)c1 displays log10(solubility kinetic) of 1.67

According to the records, this compound CCOc1ccc(CCNC(=O)Nc2ccccc2C)cc1OCC displays log10(solubility kinetic) of 0.51

According to the records, this compound O=C(Nc1cccc(S(=O)(=O)N2CCCCC2)c1)C1COc2ccccc2O1 (stereo not drawn) displays log10(solubility kinetic) of 0.82

According to the records, this compound Cc1ccc2[nH]c3c(c2c1)CNCC3.Cl displays log10(solubility kinetic) of 1.50

According to the records, this compound CC(=O)NCc1ccc(C(=O)COC(=O)COc2ccc(Cl)c(C)c2)s1 displays log10(solubility kinetic) of 1.59

According to the records, this compound Cc1sc(N)nc1-c1ccc(Oc2ccccc2)cc1 displays log10(solubility kinetic) of 0.32

According to the records, this compound O=C(CCSCc1ccccc1F)NCc1ccc(F)cc1 displays log10(solubility kinetic) of 1.52

According to the records, this compound CC(NC(=O)CN1C(=O)c2ccccc2C1=O)c1ccccc1 (stereo not drawn) displays log10(solubility kinetic) of 0.92

According to the records, this compound N#CC1=C(S)N(c2ccccc2)C(c2ccco2)NC1=O (stereo not drawn) displays log10(solubility kinetic) of 1.57

According to the records, this compound Cc1ccc(NC(=O)CN2C(=O)c3ccccc3S2(=O)=O)c(C)c1 displays log10(solubility kinetic) of 0.43

According to the records, this compound O=C(OCC(=O)c1ccc(Cl)s1)c1cncc(Br)c1 displays log10(solubility kinetic) of 1.24

According to the records, this compound CC1=C(C(=O)OCC2CCCCC2)C(c2ccccc2F)NC(=O)N1 (stereo not drawn) displays log10(solubility kinetic) of -0.22

According to the records, this compound CSc1ncc(C(=O)Nc2ccc(Cl)cc2)c(C)n1 displays log10(solubility kinetic) of 1.10

According to the records, this compound CC(C)(CO)NCc1c(OCc2ccc(Cl)cc2)ccc2ccccc12.Cl displays log10(solubility kinetic) of 1.76

According to the records, this compound COc1cccc(N2CCN(CC(=O)NCc3ccccc3)CC2)c1 displays log10(solubility kinetic) of 1.70

According to the records, this compound O=C(NC(=S)Nc1ccccn1)c1cccc([N+](=O)[O-])c1 displays log10(solubility kinetic) of 0.79

According to the records, this compound CCOCCCNC(=O)/C(C#N)=C/c1ccc([N+](=O)[O-])o1 displays log10(solubility kinetic) of 1.38

According to the records, this compound COc1ccc(C=O)cc1Cn1c(C)cc(C)c(C#N)c1=O displays log10(solubility kinetic) of -0.22
